assay: Physostigmine pharmacokinetics and tissue concentrations in rats after intramuscular administration; format: in vivo, Male Sprague-Dawley rats; conditions: rat, muscle, im; 0.3 mg/kg intramuscular, 180 min; read-out: Tissue concentration of physostigmine, Muscle
observed-property: concentration at 3 h (ng/g)
// units = ng/g; emit number, no label

Field concentration at 3 h (entry CNC(=O)Oc1ccc2c(c1)[C@]1(C)CCN(C)[C@@H]1N2C [Physostigmine, physostigmine] ) reads 37.5

###

assay: Physostigmine pharmacokinetics and tissue concentrations in rats after intramuscular administration; assay type: in vivo, Male Sprague-Dawley rats; settings: rat, muscle, im; 0.3 mg/kg intramuscular, 2.5 min; read-out: Tissue concentration of physostigmine, Muscle
observed-property: concentration at 2.5 min (ng/g)
// units = ng/g; emit number, no label

Field concentration at 2.5 min (entry CNC(=O)Oc1ccc2c(c1)[C@]1(C)CCN(C)[C@@H]1N2C [Physostigmine, physostigmine] ) reads 321

###

experiment: Physostigmine pharmacokinetics and tissue concentrations in rats after intramuscular administration; assay type: in vivo, Male Sprague-Dawley rats; conditions: rat, heart, im; 0.3 mg/kg intramuscular, 2.5 min; read-out: Tissue concentration of physostigmine, Heart
observed-property: concentration at 2.5 min (ng/g)
// units = ng/g; emit number, no label

Field concentration at 2.5 min (entry CNC(=O)Oc1ccc2c(c1)[C@]1(C)CCN(C)[C@@H]1N2C ) reads 332

###

test: Physostigmine pharmacokinetics and tissue concentrations in rats after intramuscular administration; format: in vivo, Male Sprague-Dawley rats; settings: rat, fat, im; 0.3 mg/kg intramuscular, 120 min; read-out: Tissue concentration of physostigmine, Fat
observed-property: concentration at 2 h (ng/g)
// units = ng/g; emit number, no label

Field concentration at 2 h (entry CNC(=O)Oc1ccc2c(c1)[C@]1(C)CCN(C)[C@@H]1N2C ) reads 58.6

###

experiment: Physostigmine pharmacokinetics and tissue concentrations in rats after intramuscular administration; assay type: in vivo, Male Sprague-Dawley rats; details: rat, spleen, im; 0.3 mg/kg intramuscular, 60 min; read-out: Tissue concentration of physostigmine, Spleen
observed-property: concentration at 1 h (ng/g)
// units = ng/g; emit number, no label

Field concentration at 1 h (entry CNC(=O)Oc1ccc2c(c1)[C@]1(C)CCN(C)[C@@H]1N2C ) reads 540

###

Assay: Physostigmine pharmacokinetics and tissue concentrations in rats after intramuscular administration
Type: in vivo, Male Sprague-Dawley rats
Conditions: rat, muscle, im; 0.3 mg/kg intramuscular, 45 min; read-out: Tissue concentration of physostigmine, Muscle
Method: To study the pharmakinetics of physostigmine and validate the RIA and the antibody specificity of the present invention, rat studies were conducted. […] The blood and tissue samples were used to determine the concentration of physostigmine as a function of time. FIG. 3 gives the physostigmine level in the plasma of three male rats for each time interval as determined by the RIA of the present invention, while Table 4 presents the concentration of physostigmine in various organs as a function of time.
observed-property: concentration at 0.75 h

Field concentration at 0.75 h (entry CNC(=O)Oc1ccc2c(c1)[C@]1(C)CCN(C)[C@@H]1N2C [Physostigmine, physostigmine] ) reads 241 ng/g

###

test: Physostigmine pharmacokinetics and tissue concentrations in rats after intramuscular administration; assay type: in vivo, Male Sprague-Dawley rats; details: rat, heart, im; 0.3 mg/kg intramuscular, 180 min; read-out: Tissue concentration of physostigmine, Heart
observed-property: concentration at 3 h (ng/g)
// units = ng/g; emit number, no label

Field concentration at 3 h (entry CNC(=O)Oc1ccc2c(c1)[C@]1(C)CCN(C)[C@@H]1N2C ) reads 48.7
